Recorded ED40, one value per entry.
- Test system: Carrageenin edema of the rear paw of the rat
- Experimental details: Carrageenin edema of the rear paw (antiphlogistic effect)
- Format: in vivo
- Condition details: rat; oral; dose for 40% retardation; read-out: Retardation of the Carrageenin Edema by 40% by mg/kg oral
Give the number; mg/kg is assumed, so skip it.

CCCCn1nc(C)c(CC(=O)O)c1C [E]    50

According to the records, this compound CCCCC1C(=O)N(c2ccccc2)N(c2ccccc2)C1=O [Phenylbutazon, reference compound] displays ED40 of 30

Just so you know, measured ED40 for O=C(O)Cc1c(-c2ccccc2)nn(-c2cccnc2)c1-c1ccccc1 [C] came out at 20

Lab note: measured ED40 of O=C(O)Cc1c(-c2ccco2)nn(-c2ccccc2)c1-c1ccco1 [B] was 10

Record summary for CC(C(=O)O)c1c(-c2ccccc2)nn(-c2ccccc2)c1-c1ccccc1 (stereo not shown) [H] : reported ED40 = 30

// recorded ED40 for O=C(O)Cc1cn(-c2ccccc2)nc1-c1ccc(Cl)cc1 [D] : 2.5

# ED40 of COc1ccc(-n2nc(C)c(CC(=O)O)c2C)cc1 [F] = 50

----------
- Test system: mouse
- Condition details: Table II; I.P.
Lab note - cut at 200 mg/kg for LD5: True if strictly below, False if not.

Please review the following examples before continuing.
O=C(O)Cc1cnn(-c2ccccc2)c1-c1ccc(Cl)cc1    True
O=C(O)Cc1c(-c2ccco2)nn(-c2ccccc2)c1-c1ccco1    True
Cc1nn(-c2ccccc2)c(C)c1CC(N)=O    False
CCCCn1nc(-c2ccccc2)c(CC(=O)O)c1-c1ccccc1    False
O=C(O)Cc1c(-c2ccc(Cl)cc2)nn(-c2ccccc2)c1-c1ccc(Cl)cc1    True

Is it true that LD5 reported for Cc1c(N(C)C)c(=O)n(-c2ccccc2)n1C [Aminophenazone, reference compound] is less than 200 mg/kg? False

----------
- Experimental details: in vivo
- Condition details: mouse, ip, Toxicity LD50 after a single dose in the mouse, Table I, i.p., 50% of the animals died within 72 hours
Recorded LD50 at 72 h by entry
State the value with its unit after it.

CCCCn1nc(C)c(CC(=O)O)c1C    1400 mg/kg
CC(C(=O)O)c1c(-c2ccccc2)nn(-c2ccccc2)c1-c1ccccc1 (stereo not drawn)    199 mg/kg
O=C(O)Cc1c(-c2ccco2)nn(-c2ccccc2)c1-c1ccco1    370 mg/kg
COc1ccc(-n2nc(C)c(CC(=O)O)c2C)cc1    1000 mg/kg
O=C(O)Cc1c(-c2ccccc2)nn(-c2cccnc2)c1-c1ccccc1    1150 mg/kg

Continue with the next compound.
Record `Cc1nn(-c2ccccc2)c(-c2ccccc2)c1CC(=O)O` . Reported LD50 at 72 h: 500 mg/kg

----------
Overview of recorded selectivity ratio for various compounds
- Experimental details: Analgesic effect: delay in the defense reaction of the mouse upon thermal stimulation of the root of the tail by a heat beam
- Format: in vivo
- Condition details: mouse, in vivo; LD5 I.P. / ED40 oral; read-out: Therapeutic Index LD5/ED40
Kindly provide the number alone.

Record excerpt, results attached:
CCCCn1nc(-c2ccccc2)c(CC(=O)O)c1-c1ccccc1 [K]    4.5
O=C(O)Cc1cnn(-c2ccccc2)c1-c1ccc(Cl)cc1 [I]    2.6
Cc1nn(-c2ccccc2)c(C)c1CC(N)=O [P]    3.3

compound COc1cccc(-c2nn(-c3ccccc3)c(-c3cccc(OC)c3)c2CC(=O)O)c1 [N] , selectivity ratio observed: 3.6

Reported selectivity ratio of O=C(O)Cc1c(-c2ccc(Cl)cc2)nn(-c2ccccc2)c1-c1ccc(Cl)cc1 [M] : 1.9

// recorded selectivity ratio for Cc1c(N(C)C)c(=O)n(-c2ccccc2)n1C [Aminophenazone, reference compound] : 1.9

Given item O=C(O)Cc1c(-c2ccco2)nn(-c2ccccc2)c1-c1ccco1 [B] , the value recorded as its selectivity ratio is 3.8
